Origin of the recorded values: patent US20090130692A1

TGT: bovine pancreatic trypsin (bovine), P00760
Sequence (P00760 24-246): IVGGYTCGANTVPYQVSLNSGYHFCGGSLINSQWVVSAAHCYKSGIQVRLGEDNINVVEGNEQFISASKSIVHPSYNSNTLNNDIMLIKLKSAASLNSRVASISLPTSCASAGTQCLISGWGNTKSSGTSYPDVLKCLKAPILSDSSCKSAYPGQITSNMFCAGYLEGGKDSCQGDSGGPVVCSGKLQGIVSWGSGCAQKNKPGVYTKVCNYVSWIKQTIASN
EXPERIMENT: enzyme inhibition; residual trypsin activity fitted to tight-binding equation (Morrison); apparent Ki (Kiapp)
METRIC NAME: Ki (nM)

Task: I would be grateful if you could share the reported Ki for GVCPKILKKCRRDSDCLAGCVCGPNGFCGS (modifications not checked) [SE-MG-0] .
Result: 0.3

Task: Next: GVCPGILKKCRRDSDCPGACICRGNGYCG (modifications not checked) [MCoTI-AlaG]
Result: 1000

Task: Next: GVCPKILKKCRRDSDCPGACICRGNGYCG (modifications not checked) [SE-MC-K]
Result: 0.3

Task: Next: GVCPKILKACRRDSDCPGACICRGNGYCG (modifications not checked) [MCoTI-LKAC]
Result: 0.4

Task: Next: GVCPKILKRCRRDSDCPGACICRGNGYCG (modifications not checked) [MCoTI-LKRC]
Result: 0.4

[P] KKVGVCPKILKKCRRDSDCPGACICRGNGYCG (modifications not checked) [MCoTI-KKV]
[Q] GSVCPKILKKCRRDSDCLAGCVCGPNGFCGS (modifications not checked) [MCoEeTI]
Task: Lab note: check whether P or Q shows the higher recorded Ki. Return value: the label identifying the chosen record.
Result: P
(P: 0.4 nM, Q: 0.03 nM)
